Origin of measurements: patent US20230303510A1

# IC50 per record follows
Target: Pol theta (residues 1819-2590) (Homo sapiens, UniProt O75417)
Sequence (O75417 1819-2590): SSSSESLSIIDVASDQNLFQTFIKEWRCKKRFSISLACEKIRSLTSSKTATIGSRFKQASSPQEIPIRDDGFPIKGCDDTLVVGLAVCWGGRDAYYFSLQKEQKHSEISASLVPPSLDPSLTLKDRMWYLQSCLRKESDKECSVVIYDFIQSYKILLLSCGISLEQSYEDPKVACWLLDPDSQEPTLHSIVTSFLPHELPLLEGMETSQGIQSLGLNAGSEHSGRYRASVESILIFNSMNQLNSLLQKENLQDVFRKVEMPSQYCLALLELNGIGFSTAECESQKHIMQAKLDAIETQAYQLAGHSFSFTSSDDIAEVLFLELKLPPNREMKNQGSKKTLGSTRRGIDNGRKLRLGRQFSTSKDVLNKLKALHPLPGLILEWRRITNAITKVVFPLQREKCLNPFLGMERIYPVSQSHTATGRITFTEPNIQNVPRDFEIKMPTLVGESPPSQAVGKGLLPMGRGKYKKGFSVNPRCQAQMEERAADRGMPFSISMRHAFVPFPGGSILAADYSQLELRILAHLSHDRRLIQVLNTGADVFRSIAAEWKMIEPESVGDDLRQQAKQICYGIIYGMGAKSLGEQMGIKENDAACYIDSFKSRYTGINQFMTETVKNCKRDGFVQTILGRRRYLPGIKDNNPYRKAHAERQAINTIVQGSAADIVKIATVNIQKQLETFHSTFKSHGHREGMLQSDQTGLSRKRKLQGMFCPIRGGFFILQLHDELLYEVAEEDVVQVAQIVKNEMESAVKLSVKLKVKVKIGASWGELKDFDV

Some compounds with known IC50 results, for comparison:
{"compound": "CN(C(=O)C1CCCN1c1nc(C(F)(F)F)cc(C(F)(F)F)c1C#N)c1ccc(F)cc1 (stereo not drawn)", "IC50": "≤ 200 nM"}
{"compound": "CN(C(=O)[C@@H]1[C@H](O)CCN1c1cc(C(F)(F)F)cc(C(F)(F)F)n1)c1ccc(F)cc1", "IC50": "≤ 200 nM"}
{"compound": "C[C@H]1CC[C@@H](C(=O)N(C)c2ccc(F)cc2)N1c1cc(C(F)(F)F)cc(C(F)(F)F)n1", "IC50": "≤ 200 nM"}
{"compound": "CN(C(=O)[C@@H]1CCN1c1nc(C(F)(F)F)cc(C(F)(F)F)c1C#N)c1ccc(F)cc1", "IC50": "≤ 200 nM"}
{"compound": "CN(C(=O)[C@@H]1CCCN1c1cc(C(F)(F)F)cc(C(F)(F)F)n1)c1ccc(F)cc1", "IC50": "≤ 200 nM"}
{"compound": "C[C@@H]1CC[C@@H](C(=O)N(C)c2ccc(F)cc2)N1c1cc(C(F)(F)F)cc(C(F)(F)F)n1", "IC50": "500 to 1000 nM"}
{"compound": "CN(C(=O)[C@H]1CCCN1c1cc(C(F)(F)F)cc(C(F)(F)F)n1)c1ccc(F)cc1", "IC50": "1000 to 10000 nM"}
{"compound": "CN(C(=O)C1COCCN1c1cc(C(F)(F)F)cc(C(F)(F)F)n1)c1ccc(F)cc1 (stereo not drawn)", "IC50": "1000 to 10000 nM"}
{"compound": "O=C([C@@H]1CCCN1c1cc(C(F)(F)F)cc(C(F)(F)F)n1)N(c1ccc(F)cc1)C1COC1", "IC50": "≤ 200 nM"}
{"compound": "Fc1ccc(-c2cccnc2[C@H]2CCCN2c2cc(C(F)(F)F)cc(C(F)(F)F)n2)cc1", "IC50": "1000 to 10000 nM"}

stdin: What value of IC50 has been recorded for this entry: Fc1ccc(-c2cccnc2[C@@H]2CCCN2c2cc(C(F)(F)F)cc(C(F)(F)F)n2)cc1
stdout: ≤ 200 nM

stdin: How about CC(=O)N[C@H]1C[C@@H](C(=O)N(C)c2ccc(F)cc2)N(c2cc(C(F)(F)F)cc(C(F)(F)F)n2)C1 ?
stdout: ≤ 200 nM

stdin: CC(=O)N[C@@H]1C[C@@H](C(=O)N(C)c2ccc(F)cc2)N(c2cc(C(F)(F)F)cc(C(F)(F)F)n2)C1 , same question.
stdout: ≤ 200 nM

stdin: Would you kindly repeat that for CN(C(=O)[C@@H]1[C@@H](O)CCN1c1cc(C(F)(F)F)cc(C(F)(F)F)n1)c1ccc(F)cc1 ?
stdout: ≤ 200 nM

stdin: Field entry: O=C([C@@H]1CCCN1c1cc(C(F)(F)F)cc(C(F)(F)F)n1)N(c1ccccc1)c1ccccc1
stdout: 1000 to 10000 nM

====

Quick reference for pIC50 among some molecules
Molecular target: Pol theta polymerase domain (residues 1819-2590) (Homo sapiens)
pIC50: −log10 of the molar value.

Some molecules with known pIC50 results, for comparison:
{"molecule": "CN(C(=O)[C@H]1CCCN1c1cc(C(F)(F)F)cc(C(F)(F)F)n1)c1ccc(F)cc1 [1.002]", "tgt": "Pol theta polymerase domain (residues 1819-2590) (Homo sapiens)", "pIC50": "5.00 to 6.00"}
{"molecule": "CC(=O)N[C@H]1C[C@@H](C(=O)N(C)c2ccc(F)cc2)N(c2cc(C(F)(F)F)cc(C(F)(F)F)n2)C1 [1.020]", "tgt": "Pol theta polymerase domain (residues 1819-2590) (Homo sapiens)", "pIC50": "≥ 6.70"}

stdin: Entry CN(C(=O)[C@@H]1C[C@H](O)CN1c1cc(C(F)(F)F)cc(C(F)(F)F)n1)c1ccc(F)cc1 [1.013] : reported pIC50 = ?
stdout: ≥ 6.70

stdin: Now the same for CN(C(=O)C1CCCN1c1ccccc1)c1ccccc1 (stereo not shown) [1.004]
stdout: 5.00 to 6.00

stdin: And CN(C(=O)C1COCCN1c1cc(C(F)(F)F)cc(C(F)(F)F)n1)c1ccc(F)cc1 (stereo not shown) [1.006] ?
stdout: ≥ 6.70

stdin: Can you handle CN(C(=O)[C@@H]1CCCN1c1cc(C(F)(F)F)cc(C(F)(F)F)n1)c1ccc(F)cc1 [1.003] next?
stdout: ≥ 6.70

stdin: Next molecule up: CN(C(=O)[C@@H]1[C@@H](O)CCN1c1cc(C(F)(F)F)cc(C(F)(F)F)n1)c1ccc(F)cc1 [1.019]
stdout: ≥ 6.70

stdin: Please do the same for CN(C(=O)[C@@H]1CCCN1c1cc(C(F)(F)F)cc(C(F)(F)F)n1)c1ccncc1 [1.011] as well.
stdout: ≥ 6.70

stdin: Another: CC(=O)N[C@@H]1C[C@@H](C(=O)N(C)c2ccc(F)cc2)N(c2cc(C(F)(F)F)cc(C(F)(F)F)n2)C1 [1.022]
stdout: ≥ 6.70

stdin: Param item: CN(C(=O)C1CCCN1c1nc(C(F)(F)F)cc(C(F)(F)F)c1C#N)c1ccc(F)cc1 (stereo not shown) [1.024]
stdout: ≥ 6.70
